Record form. Attribute: CMV-LACZ in Myoblasts, value relative to DMSO. Fill in for each entry.
Test system: β-galactosidase in CMV-LacZ C2C12 myoblasts
PROCEDURE TEXT: CMV-LacZ secondary screen in C2C12 myoblasts (β-Gal stabilizing assay)
Type: cell-based, mouse
COND: 0.5 uM; SU9516 analogs, C2C12 CMV-LacZ, N=2
Answers are plain numbers.

Below, 2 compounds whose answers are already recorded.
{"COMPOUND": "Cc1ccc2c(c1)/C(=C/c1ccccc1F)C(=O)N2 [MLS001202330-01]", "MEAS VALUE": 0.7417}
{"COMPOUND": "NC(=O)COc1ccc(C(=O)/C=C2/C(=O)Nc3ccccc32)cc1 [MLS001214300-01]", "MEAS VALUE": 1.0446}

// each compound listed below needs its CMV-LACZ in Myoblasts, value relative to DMSO
1. Cc1ccc(/C=C2\C(=O)Nc3ccccc32)o1 [MLS000391588-01]
2. Cc1cc(C)c(/C=C2\C(=O)Nc3ccccc32)[nH]1 [NCGC00094381-05]
3. Cc1ccc2c(c1)/C(=C/c1ccccc1)C(=O)N2 [MLS001202354-01]
4. COc1ccc(C(=O)/C=C2/C(=O)Nc3ccccc32)cc1OC [MLS001163860-01]
5. CC(C)Oc1ccc(C(=O)/C=C2/C(=O)Nc3ccccc32)cc1 [MLS001214276-01]
6. Cc1[nH]c(C=C2C(=O)Nc3ccccc32)c(C)c1CCC(=O)O [NCGC00241113-01]
7. Cc1ncc(/C=C2\C(=O)Nc3ccccc32)[nH]1 [MLS000834757-01]

Reply:
1.0009
0.8383
1.2275
0.9350
0.9516
1.4142
1.0367
